These measurements were taken from ChEMBL document CHEMBL1697781.

# LDH Increase - Index Value annotations
- Test system: Hepatotoxicity
- assay.procedure: FDA HLAED, lactate dehydrogenase (LDH) increase
- study.conditions: human
test.readout: LDH Increase - Index Value

• CN(C)CCCN1c2ccccc2CCc2ccc(Cl)cc21 [CLOMIPRAMINE] = 0
• CC(C)c1cccc(C(C)C)c1O [PROPOFOL] = 0.5
• CN(N=O)C(=O)N[C@@H](C=O)[C@@H](O)[C@H](O)[C@H](O)CO [STREPTOZOCIN] = 0
• CC1=C(CC(=O)O)c2cc(F)ccc2/C1=C\c1ccc([S+](C)[O-])cc1 (stereo not given) = 0

====

- System: Hepatotoxicity
- assay.procedure: FDA HLAED, serum glutamic pyruvic transaminase (SGPT) increase
- study.conditions: human
Here the recorded SGPT Increase - Index Value is given for each entry.
test.readout: SGPT Increase - Index Value

• CC(C)N1CCN(c2ccc(OCC3COC(Cn4cncn4)(c4ccc(Cl)cc4Cl)O3)cc2)CC1 (stereo not drawn) = 0
• Nc1nc2c(ncn2COCCO)c(=O)[nH]1 = 0.1
• CO/N=C(\C(=O)N[C@@H]1C(=O)N2C(C(=O)O)=C(COC(N)=O)CS[C@H]12)c1ccco1 = 0
• C=CCN1C[C@H](C(=O)N(CCCN(C)C)C(=O)NCC)C[C@@H]2c3cccc4[nH]cc(c34)C[C@H]21 = 0
• O=C1CN=C(c2ccccc2)c2cc(Cl)ccc2N1CC(F)(F)F = 0
• CN(C)CCCN1c2ccccc2CCc2ccc(Cl)cc21 = 0
• C[C@](N)(Cc1ccc(O)cc1)C(=O)O = 0
• COc1ccc(-c2ccc3cc(C(=O)O)ccc3c2)cc1C12CC3CC(CC(C3)C1)C2 = 0
• c1ccc([C@H]2CN3CCSC3=N2)cc1 = 8.8
• O=C1CN(/N=C/c2ccc([N+](=O)[O-])o2)C(=O)N1 = 27.4
• O=c1n(CCCN2CCN(c3cccc(Cl)c3)CC2)nc2ccccn12 = 0
• COC(=O)C1=C(C)NC(C)=C(C(=O)OC(C)C)C1c1cccc2nonc12 (stereo not drawn) = 0.7
• Nc1c2c(nc3ccccc13)CCCC2 = 170
• CN(C)C(=N)N=C(N)N = 0
• COc1ccc2cc(CCC(C)=O)ccc2c1 = 0.6
• COC(=O)CCc1ccc(OCC(O)CNC(C)C)cc1 (stereo not drawn) = 0
• CC(C)(C#N)c1cc(Cn2cncn2)cc(C(C)(C)C#N)c1 = 12.8
• CCOC(=O)c1cncn1[C@H](C)c1ccccc1 [ETOMIDATE] = 0

====

# Composite Activity - Active per record follows
- Tested on: Hepatotoxicity
- assay.procedure: FDA HLAED, liver enzyme composite activity
- study.conditions: human
test.readout: Composite Activity - Active

• C[C@@H](CN1CC(=O)NC(=O)C1)N1CC(=O)NC(=O)C1 = 0
• CC(C)/N=c1\cc2n(-c3ccc(Cl)cc3)c3ccccc3nc-2cc1Nc1ccc(Cl)cc1 = 4
• CCC(=O)O[C@H]1CC[C@H]2[C@@H]3CCC4=CC(=O)CC[C@]4(C)[C@H]3CC[C@]12C [TESTOSTERONE PROPIONATE] = 0
• COc1ccc(-c2ccc3cc(C(=O)O)ccc3c2)cc1C12CC3CC(CC(C3)C1)C2 = 0
• COc1ccc(C(=O)Nc2ccccc2CCC2CCCCN2C)cc1 (stereo not given) [ENCAINIDE] = 3

====

- Tested on: Hepatotoxicity
- assay.procedure: FDA HLAED, serum glutamic oxaloacetic transaminase (SGOT) increase
- study.conditions: human
test.readout: SGOT Increase - Activity Score

* CC(=O)OCC1=C(C(=O)O)N2C(=O)[C@@H](NC(=O)CSc3ccncc3)[C@H]2SC1 [CEPHAPIRIN] | Inactive
* CC(C)c1ccc2oc3nc(N)c(C(=O)O)cc3c(=O)c2c1 [AMLEXANOX] | Inactive
* N#Cc1cc(NC(=O)C(=O)O)c(Cl)c(NC(=O)C(=O)O)c1 [LODOXAMIDE] | Inactive
* CO[C@@]1(NC(=O)Cc2cccs2)C(=O)N2C(C(=O)O)=C(COC(N)=O)CS[C@@H]21 [CEFOXITIN] | Inactive
* CO/N=C(\C(=O)N[C@@H]1C(=O)N2C(C(=O)O)=C(CSc3nc(=O)c(=O)[nH]n3C)CS[C@H]12)c1csc(N)n1 [CEFTRIAXONE] | Marginally Active
* CC(C)C[C@H]1C(=O)N2CCC[C@H]2[C@]2(O)O[C@](NC(=O)[C@@H]3C=C4c5cccc6[nH]c(Br)c(c56)C[C@H]4N(C)C3)(C(C)C)C(=O)N12 [BROMOCRIPTINE] | Inactive
* O=C(O)c1cn(C2CC2)c2cc(N3CCNCC3)c(F)cc2c1=O [CIPROFLOXACIN] | Marginally Active
* CC(C)n1c(/C=C/C(O)CC(O)CC(=O)O)c(-c2ccc(F)cc2)c2ccccc21 (configuration not stated) [FLUVASTATIN] | Inactive
* C[N+](C)(C)C[C@H](O)CC(=O)[O-] [LEVOCARNITINE] | Inactive
* CC=CC1=C(C(=O)O)N2C(=O)[C@@H](NC(=O)[C@H](N)c3ccc(O)cc3)[C@H]2SC1 [CEFPROZIL] | Inactive
* CCN[C@@H](C)Cc1cccc(C(F)(F)F)c1 [DEXFENFLURAMINE] | Inactive
* Cc1nnc2n1-c1ccc(Cl)cc1C(c1ccccc1Cl)=NC2 [TRIAZOLAM] | Inactive

====

- Test system: Hepatotoxicity
- assay.procedure: FDA HLAED, gamma-glutamyl transferase (GGT) increase
- study.conditions: human
test.readout: GGT Increase - Index Value

• OCc1cc(C(O)CNCCCCCCOCCCCc2ccccc2)ccc1O (stereo not given) [SALMETEROL] = 0.1
• COc1cc2nc(N3CCN(C(=O)C4CCCO4)CC3)nc(N)c2cc1OC (stereo not given) [TERAZOSIN] = 0.8
• CCCCC(=O)O[C@H]1CC[C@H]2[C@@H]3CCc4cc(O)ccc4[C@H]3CC[C@]12C [ESTRADIOL VALERATE] = 0.3
• CCOC(=O)c1ccc(C#Cc2ccc3c(c2)C(C)(C)CCS3)nc1 [TAZAROTENE] = 0
• CN1CCC[C@H]1c1cccnc1 [NICOTINE] = 0.3

====

- System: Hepatotoxicity
- assay.procedure: FDA HLAED, serum glutamic oxaloacetic transaminase (SGOT) increase
- study.conditions: human
test.readout: SGOT Increase - Activity Score

* CCOC(=O)N1CCC(=C2c3ccc(Cl)cc3CCc3cccnc32)CC1 | Inactive
* NNC(=O)c1ccncc1 | Active
* COc1ccc(Cl)cc1C(=O)NCCc1ccc(S(=O)(=O)NC(=O)NC2CCCCC2)cc1 [GLYBURIDE] | Inactive
* C=C1/C(=C\C=C2/CCC[C@]3(C)[C@@H]([C@H](C)/C=C/[C@@H](O)C4CC4)CC[C@@H]23)C[C@@H](O)C[C@@H]1O | Inactive
* CO[C@H]1/C=C/O[C@@]2(C)Oc3c(C)c(O)c4c(O)c(c(/C=N/N5CCN(C)CC5)c(O)c4c3C2=O)NC(=O)/C(C)=C\C=C\[C@H](C)[C@H](O)[C@@H](C)[C@@H](O)[C@@H](C)[C@H](OC(C)=O)[C@@H]1C | Active
* Clc1ccc(COC(Cn2ccnc2)c2ccc(Cl)cc2Cl)cc1 (stereo not drawn) | Inactive
* NCC(CC(=O)O)c1ccc(Cl)cc1 (stereo not drawn) | Active
* Nc1nnc(-c2cccc(Cl)c2Cl)c(N)n1 | Active
* CN[C@H]1CC[C@@H](c2ccc(Cl)c(Cl)c2)c2ccccc21 | Inactive
* CCOC(=O)[C@H](CCc1ccccc1)N[C@@H](C)C(=O)N1[C@H](C(=O)O)C[C@@H]2CCC[C@@H]21 | Inactive
* COc1cc([C@@H]2c3cc4c(cc3[C@@H](O[C@@H]3O[C@@H]5CO[C@@H](C)O[C@H]5[C@H](O)[C@H]3O)[C@H]3COC(=O)[C@H]23)OCO4)cc(OC)c1O [ETOPOSIDE] | Inactive
* CCOC(=O)[C@H](CCc1ccccc1)N[C@@H](C)C(=O)N1Cc2cc(OC)c(OC)cc2C[C@H]1C(=O)O | Inactive

====

- System: Hepatotoxicity
- assay.procedure: FDA HLAED, serum glutamic oxaloacetic transaminase (SGOT) increase
- study.conditions: human
test.readout: SGOT Increase - Activity Score

• Nc1ccn([C@@H]2O[C@H](CO)[C@@H](O)C2(F)F)c(=O)n1 = Inactive
• C[C@@H]1C[C@H]2[C@@H]3C[C@H](F)C4=CC(=O)C=C[C@]4(C)[C@@]3(F)[C@@H](O)C[C@]2(C)[C@@]1(O)C(=O)SCF = Inactive
• COCCCC/C(=N\OCCN)c1ccc(C(F)(F)F)cc1 = Active
• NCCCNCCSP(=O)(O)O = Inactive
• C[C@H]1[C@H](NC(=O)/C(=N\OC(C)(C)C(=O)O)c2csc(N)n2)C(=O)N1S(=O)(=O)O = Marginally Active
• Oc1ncnc2[nH]ncc12 = Active
• NCCCC[C@H](N[C@@H](CCc1ccccc1)C(=O)O)C(=O)N1CCC[C@H]1C(=O)O [LISINOPRIL ANHYDROUS] = Inactive
• CCCN1CCCC[C@H]1C(=O)Nc1c(C)cccc1C = Inactive
• CC(C)NCC(O)COc1ccc(COCCOC(C)C)cc1 (stereo not drawn) = Inactive
• CC(C(=O)O)c1ccc(C(=O)c2cccs2)cc1 (stereo not drawn) = Inactive
• CC(C)c1cccc(C(C)C)c1O = Inactive
• COC(=O)C1=C(C)NC(C)=C(C(=O)OCCN(C)Cc2ccccc2)C1c1cccc([N+](=O)[O-])c1 (stereo not drawn) = Marginally Active
• CCCCCCCN(CC)CCCC(O)c1ccc(NS(C)(=O)=O)cc1 (stereo not drawn) [IBUTILIDE] = Inactive
• C[C@H]1O[C@H](O[C@H]2[C@H](O)[C@@H](O)[C@@H](O[C@H]3[C@H](O)[C@@H](O)C(O)O[C@@H]3CO)O[C@@H]2CO)[C@H](O)[C@@H](O)[C@@H]1N[C@H]1C=C(CO)[C@@H](O)[C@H](O)[C@H]1O (stereo partly drawn) = Active
• O=[N+]([O-])O[C@@H]1CO[C@H]2[C@@H]1OC[C@@H]2O [ISOSORBIDE MONONITRATE] = Inactive
• CC1COc2c(N3CCN(C)CC3)c(F)cc3c(=O)c(C(=O)O)cn1c23 (stereo not drawn) = Inactive
• O=C(O)CCCCCCCC(=O)O = Inactive
• CCC(C)n1ncn(-c2ccc(N3CCN(c4ccc(OCC5COC(Cn6cncn6)(c6ccc(Cl)cc6Cl)O5)cc4)CC3)cc2)c1=O (stereo not drawn) = Active
